The entries below are paired with their reported IC50.
Biological target: Endothelial lipase (EL) (Homo sapiens, UniProt Q9Y5X9)
Construct: HT-1080 cells, which were transformed by RAGE technology (Athersys) to overexpress endogenous EL; endogenous in cells; conditioned medium used as the enzyme source
Experiment: Endothelial lipase (EL) enzymatic assay with fluorescent substrate A10070 in DMPG vesicles
Type: biochemical
Details: range observed in the EL assay; read-out: EL IC50 values
property-measured: IC50

{"columns": ["compound", "measured-value"],
 "data": [
  ["O=C(N[C@@H]1CCCc2c1cccc2C(F)(F)F)c1[nH]c(=O)[nH]c(=O)c1O", "≤ 10 µM"],
  ["Nc1c(C(=O)N[C@H]2CC[C@H](c3ccccc3)c3ccccc32)[nH]c(=O)[nH]c1=O", "≤ 10 µM"],
  ["Nc1c(C(=O)N[C@@H]2CCc3c(Oc4ccccc4)cccc32)[nH]c(=O)[nH]c1=O", "≤ 10 µM"],
  ["CCn1c(=O)[nH]c(C(=O)N[C@H]2CC[C@@H](c3ccccc3)CC2)c(O)c1=O", "≤ 10 µM"],
  ["Cc1ccc(-c2ccc([C@@H]3CC[C@H](NC(=O)c4[nH]c(=O)[nH]c(=O)c4N)C3)cc2)cc1", "≤ 10 µM"],
  ["CC(C)Cn1c(=O)[nH]c(C(=O)N[C@H]2CC[C@@H](c3ccccc3)CC2)c(O)c1=O", "≤ 10 µM"],
  ["Nc1c(C(=O)N[C@H]2CC[C@H](C(=O)Nc3ccccc3)C2)[nH]c(=O)[nH]c1=O", "≤ 10 µM"],
  ["CC(C)(C)COc1ccc(C2CCC(NC(=O)c3[nH]c(=O)[nH]c(=O)c3O)C2)cc1 (stereo not drawn)", "≤ 10 µM"],
  ["O=C(N[C@H]1CC[C@@H](NC(=O)c2[nH]c(=O)[nH]c(=O)c2O)CC1)OCc1ccccc1", "≤ 10 µM"],
  ["O=C(NC1CCC(c2cnn(Cc3ccccc3)c2)C1)c1[nH]c(=O)[nH]c(=O)c1O (stereo not drawn)", "≤ 10 µM"],
  ["Nc1c(C(=O)N[C@H]2CCCc3c(OCc4ccccc4F)cccc32)[nH]c(=O)[nH]c1=O", "≤ 10 µM"],
  ["O=C(N[C@H]1CC[C@@H](c2cccc(C(F)(F)F)c2)CC1)c1[nH]c(=O)[nH]c(=O)c1O", "≤ 10 µM"],
  ["O=C(N[C@H]1CC[C@@H](NC(=O)c2[nH]c(=O)[nH]c(=O)c2O)CC1)c1ccccc1", "≤ 10 µM"],
  ["CCOC(=O)Cn1cc(-c2ccc([C@@H]3CC[C@H](NC(=O)c4[nH]c(=O)[nH]c(=O)c4N)C3)cc2)cn1", "≤ 10 µM"],
  ["O=C(N[C@H]1CC[C@@H](c2ccccc2)CC1)c1[nH]c(=O)[nH]c(=O)c1NCc1ccc(C(F)(F)F)cc1", "≤ 10 µM"]
]}

###

Target: Endothelial lipase (EL) (Homo sapiens, UniProt Q9Y5X9)
Construct: HT-1080 cells, which were transformed by RAGE technology (Athersys) to overexpress endogenous EL; endogenous in cells; conditioned medium used as the enzyme source
Sequence (Q9Y5X9 21-500): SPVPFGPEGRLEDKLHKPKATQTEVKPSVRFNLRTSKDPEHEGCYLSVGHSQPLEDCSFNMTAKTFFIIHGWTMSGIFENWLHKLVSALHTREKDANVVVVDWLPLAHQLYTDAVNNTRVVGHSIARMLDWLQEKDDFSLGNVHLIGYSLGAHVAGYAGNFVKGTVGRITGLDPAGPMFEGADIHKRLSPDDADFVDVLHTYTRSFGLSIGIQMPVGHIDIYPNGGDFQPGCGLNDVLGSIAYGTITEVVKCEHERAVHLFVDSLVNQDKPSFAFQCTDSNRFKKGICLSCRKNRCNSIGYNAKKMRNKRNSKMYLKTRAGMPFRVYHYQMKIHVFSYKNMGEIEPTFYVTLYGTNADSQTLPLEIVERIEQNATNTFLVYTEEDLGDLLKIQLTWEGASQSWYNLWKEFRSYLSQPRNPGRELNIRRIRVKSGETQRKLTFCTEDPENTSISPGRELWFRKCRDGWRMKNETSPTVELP
Test: Endothelial lipase (EL) enzymatic assay with fluorescent substrate A10070 in DMPG vesicles
Format: biochemical
Conditions: conditioned media from HT-1080 cells overexpressing endogenous EL; 20 min preincubation at 37° C.; read-out: EL IC50
pIC50: −log10 of the molar value.
Short version: pIC50 at least 6 is Y, less is N.

{"columns": ["molecule", "target-desc", "class-assignment"],
 "data": [
  ["Nc1c(C(=O)NC2CCN(c3ccc(C(F)(F)F)cn3)C2)[nH]c(=O)[nH]c1=O (centres unmarked)", "Endothelial lipase (EL) (Homo sapiens, UniProt Q9Y5X9)", "Y"],
  ["O=C(N[C@@H]1CCCc2c(OCc3ccccc3)cccc21)c1[nH]c(=O)[nH]c(=O)c1O", "Endothelial lipase (EL) (Homo sapiens, UniProt Q9Y5X9)", "Y"],
  ["Nc1c(C(=O)N[C@@H]2CCCc3c(NS(=O)(=O)c4ccccc4)cccc32)[nH]c(=O)[nH]c1=O", "Endothelial lipase (EL) (Homo sapiens, UniProt Q9Y5X9)", "Y"],
  ["CC(C)(O)CNc1c(C(=O)N[C@H]2CC[C@@H](c3ccccc3)CC2)[nH]c(=O)[nH]c1=O", "Endothelial lipase (EL) (Homo sapiens, UniProt Q9Y5X9)", "Y"],
  ["O=C(Nc1ccccc1)N[C@H]1CC[C@@H](NC(=O)c2[nH]c(=O)[nH]c(=O)c2O)CC1", "Endothelial lipase (EL) (Homo sapiens, UniProt Q9Y5X9)", "N"],
  ["Nc1c(C(=O)NC2CCCc3c2sc2nc[nH]c(=O)c32)[nH]c(=O)[nH]c1=O (centres unmarked)", "Endothelial lipase (EL) (Homo sapiens, UniProt Q9Y5X9)", "N"]
]}

###

The entries below are paired with their reported pIC50.
Target: Endothelial lipase (EL) (Homo sapiens, UniProt Q9Y5X9)
Construct: HT-1080 cells, which were transformed by RAGE technology (Athersys) to overexpress endogenous EL; endogenous in cells; conditioned medium used as the enzyme source
Sequence (Q9Y5X9 21-500): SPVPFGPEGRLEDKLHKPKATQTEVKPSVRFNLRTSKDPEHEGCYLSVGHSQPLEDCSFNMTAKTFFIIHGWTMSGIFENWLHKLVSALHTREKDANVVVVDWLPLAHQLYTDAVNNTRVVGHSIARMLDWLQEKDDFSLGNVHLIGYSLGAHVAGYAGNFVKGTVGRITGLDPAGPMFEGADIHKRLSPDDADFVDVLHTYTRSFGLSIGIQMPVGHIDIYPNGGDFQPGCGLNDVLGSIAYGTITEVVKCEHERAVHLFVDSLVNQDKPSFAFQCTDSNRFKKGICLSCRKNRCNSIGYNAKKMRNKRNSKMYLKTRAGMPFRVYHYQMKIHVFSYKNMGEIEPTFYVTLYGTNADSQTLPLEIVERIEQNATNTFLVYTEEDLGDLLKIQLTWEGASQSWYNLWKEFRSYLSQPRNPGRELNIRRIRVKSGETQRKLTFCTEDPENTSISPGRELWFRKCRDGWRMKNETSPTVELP
Assay: Endothelial lipase (EL) enzymatic assay with fluorescent substrate A10070 in DMPG vesicles
Format: biochemical
Conditions: conditioned media from HT-1080 cells overexpressing endogenous EL; 20 min preincubation at 37° C.; read-out: EL IC50
pIC50: −log10 of the molar value.
property-measured: pIC50

{"columns": ["compound", "measured-value"],
 "data": [
  ["O=C(N[C@H]1CC[C@@H](c2ccccc2)CC1)c1[nH]c(=O)[nH]c(=O)c1NCCCn1ccnc1", 5.46],
  ["O=C(N[C@H]1CC[C@@H](c2ccccc2)CC1)c1[nH]c(=O)n(CC(F)(F)F)c(=O)c1O", 6.01],
  ["Nc1c(C(=O)N[C@@H]2CCCc3ccc(C(F)(F)F)cc32)[nH]c(=O)[nH]c1=O", 7.74],
  ["Nc1c(C(=O)N[C@H]2CC[C@@H](C(=O)N[C@@H]3CCCc4c(OCc5ccccc5)cccc43)C2)[nH]c(=O)[nH]c1=O", 7.72],
  ["NC(=O)c1ccccc1-c1ccc([C@@H]2CC[C@H](NC(=O)c3[nH]c(=O)[nH]c(=O)c3N)C2)cc1", 6.85],
  ["O=C(N[C@H]1CC[C@@H](c2ccccc2)CC1)c1[nH]c(=O)[nH]c(=O)c1NCc1ccccn1", 5.28],
  ["Nc1c(C(=O)N[C@H]2CC[C@@H](c3ccccc3)CC2)n(-c2cc(F)cc(C(F)(F)F)c2)c(=O)[nH]c1=O", 5.21],
  ["O=C(N[C@H]1CCc2ccc(OCc3ccccc3)cc21)c1[nH]c(=O)[nH]c(=O)c1O", 8.00],
  ["Nc1c(C(=O)NC2CCC(c3cccc(OCc4ccccc4)c3)C2)[nH]c(=O)[nH]c1=O (stereo not shown)", 6.28],
  ["Nc1c(C(=O)NC2CCN(C(=O)Nc3ccc(C(F)(F)F)cc3)c3ccccc32)[nH]c(=O)[nH]c1=O (stereo not shown)", 5.01],
  ["CCn1c(=O)c(O)c(C(=O)N[C@H]2CC[C@@H](c3ccccc3)CC2)n(Cc2ccccc2)c1=O", 7.62],
  ["CS(=O)(=O)N1CCC(NC(=O)c2[nH]c(=O)[nH]c(=O)c2N)c2ccccc21 (stereo not shown)", 6.25],
  ["COc1ccc2c(c1)C(NC(=O)c1[nH]c(=O)[nH]c(=O)c1N)CC2 (single isomer, unassigned) [Example 73]", 6.33],
  ["CC1C(NC(=O)c2[nH]c(=O)[nH]c(=O)c2N)CC2(C(C)C)CC12 (stereo not shown)", 5.31],
  ["O=C(N[C@H]1CC[C@@H](NC(=O)c2[nH]c(=O)[nH]c(=O)c2O)CC1)OCc1ccccc1", 6.06],
  ["Nc1c(C(=O)N[C@@H]2CC[C@H](c3ccc(-c4cccc5ncccc45)cc3)C2)[nH]c(=O)[nH]c1=O", 6.30]
]}
